molecular target: PTK2-phosphorylation at tyrosine 397 (pY397) (Homo sapiens, UniProt Q05397); construct: endogenous in cells; experiment: Phospho-PTK2 (pY397) Assay in PC-3 cells; details: PC-3 prostate carcinoma cells, 2 h incubation; read-out: PC3pPTK2 Y397 EC50
pEC50: −log10 of the molar value.
property: pEC50

# compound, property, measured number
measured = [
    ("COc1ccc(CNc2nc(Nc3ccc(C(=O)N[C@H]4CC[C@H](N5CCOCC5)CC4)cc3OC)ncc2C(F)(F)F)c(N(C)S(C)(=O)=O)c1 [Example 57]", "pEC50", 9.24),
    ("COc1ccc(CNc2nc(Nc3ccc(NC(C)=O)c(OC)c3)ncc2C(F)(F)F)c(N(C)S(C)(=O)=O)c1 [Example 87]", "pEC50", 9.00),
    ("COc1cc(C(=O)N[C@@H]2CCN(C)C2)c(F)cc1Nc1ncc(C(F)(F)F)c(NCc2ccc(C)cc2N(C)S(C)(=O)=O)n1 [Example 36]", "pEC50", 9.49),
    ("COc1cc(C(=O)NC2CCN(C)CC2)c(Cl)cc1Nc1ncc(C(F)(F)F)c(NCc2ccc(C)cc2N(C)S(C)(=O)=O)n1 [Example 78]", "pEC50", 9.03),
    ("COc1cc(N2CCN(CC(=O)N(C)C)CC2)ccc1Nc1ncc(C(F)(F)F)c(NCc2ccc(F)cc2N(C)S(C)(=O)=O)n1 [Example 82]", "pEC50", 9.00),
    ("CNC(=O)c1cc(OC)c(Nc2ncc(C(F)(F)F)c(NCc3ccc(C)cc3N(C)S(C)(=O)=O)n2)cc1C [Example 54]", "pEC50", 9.26),
    ("COC(=O)Nc1cc(OC)c(Nc2ncc(C(F)(F)F)c(NCc3ccc(C)cc3N(C)S(C)(=O)=O)n2)cc1C [Example 124]", "pEC50", 8.52),
    ("COc1cc(N2CCN(C3CCN(C)CC3)CC2)ccc1Nc1ncc(C(F)(F)F)c(NCc2ccc(C)cc2N(C)S(C)(=O)=O)n1 [Example 112]", "pEC50", 8.52),
    ("CNC(=O)c1ccc(Nc2ncc(C(F)(F)F)c(NCc3ccc(OC)cc3N(C)S(C)(=O)=O)n2)c(OC)c1 [Example 81]", "pEC50", 9.00),
    ("COc1cc(C(=O)NCCN(C)C)ccc1Nc1ncc(C(F)(F)F)c(NCc2ccc(C)cc2N(C)S(C)(=O)=O)n1 [Example 4]", "pEC50", 9.96),
    ("COc1cc(C(=O)NC2CC(N3CCOCC3)C2)ccc1Nc1ncc(C(F)(F)F)c(NCc2ccc(C)cc2N(C)S(C)(=O)=O)n1 (stereo not shown) [Example 71]", "pEC50", 9.13),
    ("COc1cc(C(=O)NC2CCN(C3CCOCC3)CC2)ccc1Nc1ncc(C(F)(F)F)c(NCc2ccc(Cl)cc2N(C)S(C)(=O)=O)n1 [Example 94]", "pEC50", 8.70),
    ("COc1cc(C(=O)N[C@H]2CCCN(C3CCCC3)C2)ccc1Nc1ncc(C(F)(F)F)c(NCc2ccc(C)cc2N(C)S(C)(=O)=O)n1 [Example 47]", "pEC50", 9.30),
]

* * *

target: PTK2 (Homo sapiens, UniProt Q05397); assay: PTK2 Enzyme Test (DELFIA assay, poly-Glu-Tyr substrate); conditions: active PTK2 enzyme, 50 μM ATP in ATP Mix, 1 h pre-incubation
Sequence (Q05397 whole entry): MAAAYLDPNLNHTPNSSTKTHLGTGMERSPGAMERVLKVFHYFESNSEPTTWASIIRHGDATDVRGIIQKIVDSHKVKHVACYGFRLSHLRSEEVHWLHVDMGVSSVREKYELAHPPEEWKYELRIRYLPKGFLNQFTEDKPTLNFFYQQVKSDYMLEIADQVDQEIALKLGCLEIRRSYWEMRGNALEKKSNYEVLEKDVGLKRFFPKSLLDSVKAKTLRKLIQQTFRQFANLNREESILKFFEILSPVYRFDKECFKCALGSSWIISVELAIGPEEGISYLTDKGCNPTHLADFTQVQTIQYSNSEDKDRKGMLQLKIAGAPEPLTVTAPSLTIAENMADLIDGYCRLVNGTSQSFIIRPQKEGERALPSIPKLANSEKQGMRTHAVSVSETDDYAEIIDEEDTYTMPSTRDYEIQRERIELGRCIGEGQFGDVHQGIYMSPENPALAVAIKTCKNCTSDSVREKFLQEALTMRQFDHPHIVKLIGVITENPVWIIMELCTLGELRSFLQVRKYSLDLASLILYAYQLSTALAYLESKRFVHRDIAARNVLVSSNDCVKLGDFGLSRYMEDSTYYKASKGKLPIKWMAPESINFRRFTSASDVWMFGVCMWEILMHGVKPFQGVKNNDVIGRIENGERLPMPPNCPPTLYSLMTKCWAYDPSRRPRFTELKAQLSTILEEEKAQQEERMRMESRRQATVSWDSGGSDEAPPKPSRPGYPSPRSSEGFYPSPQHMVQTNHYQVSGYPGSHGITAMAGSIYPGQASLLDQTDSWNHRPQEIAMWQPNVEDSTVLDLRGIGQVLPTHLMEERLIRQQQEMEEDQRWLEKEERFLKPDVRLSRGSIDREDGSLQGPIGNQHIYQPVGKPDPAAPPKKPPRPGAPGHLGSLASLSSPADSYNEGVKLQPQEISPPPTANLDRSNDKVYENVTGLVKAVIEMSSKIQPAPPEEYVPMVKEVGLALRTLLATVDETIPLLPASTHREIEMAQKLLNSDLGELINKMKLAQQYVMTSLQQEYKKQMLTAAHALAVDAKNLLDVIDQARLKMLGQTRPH

# molecule, target, IC50 [nM]
data = [
    ("COc1cc(C(=O)NC2CCN3CCCC3C2)ccc1Nc1ncc(C(F)(F)F)c(NCc2ccc(C)cc2N(C)S(C)(=O)=O)n1 (centres unmarked) [Example 49]", "PTK2 (Homo sapiens, UniProt Q05397)", 4),
    ("COc1ccc(CNc2nc(Nc3ccc(NC(C)=O)c(OC)c3)ncc2C(F)(F)F)c(N(C)S(C)(=O)=O)c1 [Example 87]", "PTK2 (Homo sapiens, UniProt Q05397)", 1),
    ("COc1cc(N2CCN(C(C)C)CC2)ccc1Nc1ncc(C(F)(F)F)c(NCc2ccc(F)cc2N(C)S(C)(=O)=O)n1 [Example 75]", "PTK2 (Homo sapiens, UniProt Q05397)", 1),
    ("COc1cc(C(=O)NC2CCN(C3COC3)CC2)c(F)cc1Nc1ncc(C(F)(F)F)c(NCc2ccc(C)cc2N(C)S(C)(=O)=O)n1 [Example 93]", "PTK2 (Homo sapiens, UniProt Q05397)", 5),
    ("COc1cc(C(=O)NC2CCOCC2)ccc1Nc1ncc(C(F)(F)F)c(NCc2ccc(C)cc2N(C)S(C)(=O)=O)n1 [Example 60]", "PTK2 (Homo sapiens, UniProt Q05397)", 4),
    ("CNCc1ccc(Nc2ncc(C(F)(F)F)c(NCc3ccc(C)cc3N(C)S(C)(=O)=O)n2)c(OC)c1 [Example 25]", "PTK2 (Homo sapiens, UniProt Q05397)", 1),
    ("COc1cc(CNC2CCOCC2)ccc1Nc1ncc(C(F)(F)F)c(NCc2ccc(C)cc2N(C)S(C)(=O)=O)n1 [Example 35]", "PTK2 (Homo sapiens, UniProt Q05397)", 3),
    ("CCc1cc(C(=O)NOC)ccc1Nc1ncc(C(F)(F)F)c(NCc2ccc(C)cc2N(C)S(C)(=O)=O)n1 [Example 122]", "PTK2 (Homo sapiens, UniProt Q05397)", 2),
    ("COc1cc(C(=O)N[C@H]2CC[C@@H]3[C@@H](CCN3C)C2)ccc1Nc1ncc(C(F)(F)F)c(NCc2ccc(C)cc2N(C)S(C)(=O)=O)n1 [Example 65]", "PTK2 (Homo sapiens, UniProt Q05397)", 4),
    ("CNC(=O)c1cc(OC)c(Nc2ncc(C(F)(F)F)c(NCc3ccc(OC)cc3N(C)S(C)(=O)=O)n2)cc1F [Example 127]", "PTK2 (Homo sapiens, UniProt Q05397)", 4),
    ("COc1cc(C(=O)NC2CCN(CC3CC3)CC2)ccc1Nc1ncc(C(F)(F)F)c(NCc2ccc(C)cc2N(C)S(C)(=O)=O)n1 [Example 30]", "PTK2 (Homo sapiens, UniProt Q05397)", 4),
    ("CCc1cc(C(=O)NC)ccc1Nc1ncc(C(F)(F)F)c(NCc2ccc(C)cc2N(C)S(C)(=O)=O)n1 [Example 121]", "PTK2 (Homo sapiens, UniProt Q05397)", 2),
    ("COc1cc(C(=O)NCC2CCCO2)ccc1Nc1ncc(C(F)(F)F)c(NCc2ccc(C)cc2N(C)S(C)(=O)=O)n1 (centres unmarked) [Example 70]", "PTK2 (Homo sapiens, UniProt Q05397)", 4),
    ("COc1cc(C(=O)NCCN2CCCCC2)ccc1Nc1ncc(C(F)(F)F)c(NCc2ccc(C)cc2N(C)S(C)(=O)=O)n1 [Example 20]", "PTK2 (Homo sapiens, UniProt Q05397)", 2),
    ("CCN1CCC(NC(=O)c2cc(OC)c(Nc3ncc(C(F)(F)F)c(NCc4ccc(C)cc4N(C)S(C)(=O)=O)n3)cc2F)CC1 [Example 1]", "PTK2 (Homo sapiens, UniProt Q05397)", 2),
    ("COc1cc(C(=O)N[C@@H]2CCN(C)C[C@@H]2F)ccc1Nc1ncc(C(F)(F)F)c(NCc2ccc(C)cc2N(C)S(C)(=O)=O)n1 [Example 106]", "PTK2 (Homo sapiens, UniProt Q05397)", 4),
    ("COc1cc(C(=O)NCCN(C)C)ccc1Nc1ncc(C(F)(F)F)c(NCc2ccc(C)cc2N(C)S(C)(=O)=O)n1 [Example 4]", "PTK2 (Homo sapiens, UniProt Q05397)", 1),
    ("COc1cc(N2CCN(CC(=O)N(C)C)CC2)ccc1Nc1ncc(C(F)(F)F)c(NCc2ccc(C)cc2N(C)S(C)(=O)=O)n1 [Example 33]", "PTK2 (Homo sapiens, UniProt Q05397)", 2),
    ("COc1cc(C(=O)NC2CCN(C3CCOCC3)CC2)ccc1Nc1ncc(C(F)(F)F)c(NCc2ccc(Cl)cc2N(C)S(C)(=O)=O)n1 [Example 94]", "PTK2 (Homo sapiens, UniProt Q05397)", 2),
    ("Cc1ccc(CNc2nc(Nc3ccc(C(=O)N[C@H]4CC[C@H](N5CCN(CC6CC6)CC5)CC4)cc3F)ncc2C(F)(F)F)c(N(C)S(C)(=O)=O)c1 [Example 91]", "PTK2 (Homo sapiens, UniProt Q05397)", 3),
]

The measured values listed here are drawn from patent US8377943B2.
